- Test system: Vancomycin intermediate-resistant Staphylococcus aureus Mu50
- PROCEDURE DETAILS: In vitro infectivity assay (MIC), Exp. Ex. 2-1
- Format: cell-based
- RUN CONDITIONS: Staphylococcus aureus, VISA; Gram-positive; microdilution, MIC after 24 h; read-out: MIC VISA Mu50
MEASURED PARAMETER: MIC

Which MIC is reported for this molecule? CO[C@@H]1[C@@H](OC(N)=O)[C@@H](O)[C@H](Oc2ccc3c(O)c(NC(=O)c4ccc(O)c(CC=C(C)C)c4)c(=O)oc3c2C)OC1(C)C [Novobiocin, novobiocin, reference compound] 8 µg/mL

Could you share which MIC value was measured for Cc1ccc(CCC(=O)OCC2OC(Oc3c(-c4ccc(O)c(O)c4)oc4cc(O)cc(O)c4c3=O)C(OC(=O)CCc3ccc(C)cc3)C(O)C2O)cc1 (stereo not shown) [Compound 14l] ? 16 µg/mL

Would you kindly share the measured MIC for CCOc1ccc(C(=O)OC[C@H]2O[C@@H](Oc3c(-c4ccc(O)c(O)c4)oc4cc(O)cc(O)c4c3=O)[C@H](OC(=O)c3ccc(OCC)cc3)[C@@H](O)[C@H]2O)cc1 [Compound 14a] ? 4 µg/mL

Requested read-out: MIC. Entry: CCCc1ccc(C(=O)OC[C@H]2O[C@@H](Oc3c(-c4ccc(O)c(O)c4)oc4cc(O)cc(O)c4c3=O)[C@H](OC(=O)c3ccc(CCC)cc3)[C@@H](O)[C@H]2O)cc1 [Compound 14b] 4 µg/mL

Query (molecule): O=C(CCc1ccc(O)cc1)OC[C@H]1O[C@@H](Oc2c(-c3ccc(O)c(O)c3)oc3cc(O)cc(O)c3c2=O)[C@H](OC(=O)CCc2ccc(O)cc2)[C@@H](O)[C@H]1O [Compound 14f] ; field requested: MIC 2 µg/mL

Requested field: MIC. Item: Cc1ccc(CC(=O)OC[C@H]2O[C@@H](Oc3c(-c4ccc(O)c(O)c4)oc4cc(O)cc(O)c4c3=O)[C@H](OC(=O)Cc3ccc(C)cc3)[C@@H](O)[C@H]2O)cc1 [Compound 14d] 4 µg/mL

Given O=c1c(O)c(-c2ccc(O)c(O)c2)oc2cc(O)cc(O)c12 [Quercetin, quercetin, reference compound] , state its recorded MIC. > 128 µg/mL

* * *

- Tested on: Escherichia coli K-12
- PROCEDURE DETAILS: Antibacterial activity (MIC) against Gram-negative strains, microdilution
- Assay type: cell-based
- RUN CONDITIONS: K12, MIC after 24 h, read-out: MIC (Gram-nagative) K-12
MEASURED PARAMETER: MIC (µg/mL)
Lab book: enter the figure in µg/mL, no units written.

Given the entry CO[C@@H]1[C@@H](OC(N)=O)[C@@H](O)[C@H](Oc2ccc3c(O)c(NC(=O)c4ccc(O)c(CC=C(C)C)c4)c(=O)oc3c2C)OC1(C)C [Novobiocin, novobiocin, reference compound] , report its measured MIC. 8

Any idea what its MIC is? The molecule is CCn1cc(C(=O)O)c(=O)c2cc(F)c(N3CCNCC3)cc21 [Norfloxacin, norfloxacin, reference compound] 0.25

* * *

- System: Vancomycin-resistant enterococci NCTC 12201
- PROCEDURE DETAILS: In vitro infectivity assay (MIC), Exp. Ex. 2-1
- Type: cell-based
- RUN CONDITIONS: Enterococcus, NCTC 12201 / VRE; Gram-positive; microdilution, MIC after 24 h; read-out: MIC VRE NCTC 12201
MEASURED PARAMETER: MIC (µg/mL)
Please give a number only; it is taken to be in µg/mL.

Reported MIC, molecule Cc1ccc(CC(=O)OC[C@H]2O[C@@H](Oc3c(-c4ccc(O)c(O)c4)oc4cc(O)cc(O)c4c3=O)[C@H](OC(=O)Cc3ccc(C)cc3)[C@@H](O)[C@H]2O)cc1 [Compound 14d] : ____ 4

Which measured MIC value corresponds to Cc1ccc(CCC(=O)OCC2OC(Oc3c(-c4ccc(O)c(O)c4)oc4cc(O)cc(O)c4c3=O)C(OC(=O)CCc3ccc(C)cc3)C(O)C2O)cc1 (stereo not drawn) [Compound 14l] ? 32

What does the data say about its MIC? Entry: O=C(CCc1ccc(O)cc1)OC[C@H]1O[C@@H](Oc2c(-c3ccc(O)c(O)c3)oc3cc(O)cc(O)c3c2=O)[C@H](OC(=O)CCc2ccc(O)cc2)[C@@H](O)[C@H]1O [Compound 14f] 4

Value lookup for MIC; key = CCCc1ccc(C(=O)OC[C@H]2O[C@@H](Oc3c(-c4ccc(O)c(O)c4)oc4cc(O)cc(O)c4c3=O)[C@H](OC(=O)c3ccc(CCC)cc3)[C@@H](O)[C@H]2O)cc1 [Compound 14b] 4

So what's the measured MIC for this one? CCOc1ccc(C(=O)OC[C@H]2O[C@@H](Oc3c(-c4ccc(O)c(O)c4)oc4cc(O)cc(O)c4c3=O)[C@H](OC(=O)c3ccc(OCC)cc3)[C@@H](O)[C@H]2O)cc1 [Compound 14a] 8

* * *

Answer each item with its documented IC50.
- TEST TARGET: Escherichia coli Topoisomerase IV (Escherichia coli, UniProt P0AFI2+P20083)
- Sequence (P20083 whole entry): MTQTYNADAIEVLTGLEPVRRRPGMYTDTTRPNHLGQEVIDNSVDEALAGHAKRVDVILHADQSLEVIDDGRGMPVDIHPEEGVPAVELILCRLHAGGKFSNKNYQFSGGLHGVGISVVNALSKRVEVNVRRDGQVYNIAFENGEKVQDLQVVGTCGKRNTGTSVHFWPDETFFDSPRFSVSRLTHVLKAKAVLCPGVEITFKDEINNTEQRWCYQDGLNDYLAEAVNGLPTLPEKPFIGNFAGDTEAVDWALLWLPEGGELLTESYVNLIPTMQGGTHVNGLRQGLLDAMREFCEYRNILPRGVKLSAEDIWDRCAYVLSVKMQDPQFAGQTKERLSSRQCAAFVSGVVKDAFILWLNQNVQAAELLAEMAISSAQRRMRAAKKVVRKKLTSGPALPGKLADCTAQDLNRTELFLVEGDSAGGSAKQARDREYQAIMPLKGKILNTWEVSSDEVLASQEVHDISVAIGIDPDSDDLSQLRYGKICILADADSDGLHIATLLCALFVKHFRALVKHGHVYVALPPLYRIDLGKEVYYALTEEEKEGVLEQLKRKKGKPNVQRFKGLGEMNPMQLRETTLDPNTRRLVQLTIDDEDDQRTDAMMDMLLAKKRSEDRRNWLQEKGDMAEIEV
- Sequence (P0AFI2 whole entry): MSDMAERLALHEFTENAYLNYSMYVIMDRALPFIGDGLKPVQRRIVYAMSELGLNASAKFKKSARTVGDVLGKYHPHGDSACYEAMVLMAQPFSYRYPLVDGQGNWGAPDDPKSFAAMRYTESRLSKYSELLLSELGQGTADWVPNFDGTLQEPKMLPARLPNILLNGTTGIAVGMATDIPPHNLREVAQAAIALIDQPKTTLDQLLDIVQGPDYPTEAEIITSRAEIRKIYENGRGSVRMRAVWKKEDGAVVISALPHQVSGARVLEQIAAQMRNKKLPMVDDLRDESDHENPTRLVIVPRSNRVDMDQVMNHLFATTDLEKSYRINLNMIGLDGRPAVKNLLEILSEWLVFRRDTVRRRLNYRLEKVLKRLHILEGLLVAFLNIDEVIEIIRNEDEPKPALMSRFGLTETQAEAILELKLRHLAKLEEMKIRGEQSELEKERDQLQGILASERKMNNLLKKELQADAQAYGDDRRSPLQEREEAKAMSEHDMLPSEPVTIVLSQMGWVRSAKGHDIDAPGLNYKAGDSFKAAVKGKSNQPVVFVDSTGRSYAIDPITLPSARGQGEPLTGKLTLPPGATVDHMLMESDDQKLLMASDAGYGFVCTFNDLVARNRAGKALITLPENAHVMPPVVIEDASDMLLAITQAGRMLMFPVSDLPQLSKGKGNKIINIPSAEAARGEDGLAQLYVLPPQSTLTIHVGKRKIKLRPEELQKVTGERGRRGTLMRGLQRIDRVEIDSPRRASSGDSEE
- PROCEDURE DETAILS: Topoisomerase IV inhibition (decatenation kit), Exp. Ex. 2-3
- RUN CONDITIONS: decatenation of kDNA, 37° C., 30 minutes; read-out: IC50 (E. coli topoisomerase IV inhibitions)

Which value of IC50 has been reported for O=C(Cc1ccc(F)cc1)OC[C@H]1O[C@@H](Oc2c(-c3ccc(O)c(O)c3)oc3cc(O)cc(O)c3c2=O)[C@H](OC(=O)Cc2ccc(F)cc2)[C@@H](O)[C@H]1O [Compound 14e] in the records? 7.21 µM

Fill blank: measured IC50 of the compound CCOc1ccc(CCC(=O)OC[C@H]2O[C@@H](Oc3c(-c4ccc(O)c(O)c4)oc4cc(O)cc(O)c4c3=O)[C@H](OC(=O)CCc3ccc(OCC)cc3)[C@@H](O)[C@H]2O)cc1 [Compound 14g] is ____. > 12 µM

Quick check: IC50 of Cc1ccc(CCC(=O)OC[C@H]2O[C@@H](Oc3c(-c4ccc(O)c(O)c4)oc4cc(O)cc(O)c4c3=O)[C@H](OC(=O)CCc3ccc(C)cc3)[C@@H](O)[C@H]2O)cc1 [Compound 14h] ? 7.46 µM

Give its IC50 value. Item: Cc1ccc(CC(=O)OC[C@H]2O[C@@H](Oc3c(-c4ccc(O)c(O)c4)oc4cc(O)cc(O)c4c3=O)[C@H](OC(=O)Cc3ccc(C)cc3)[C@@H](O)[C@H]2O)cc1 [Compound 14d] 8.52 µM

Requested field: IC50. Item: O=C(CCc1ccc(O)cc1)OC[C@H]1O[C@@H](Oc2c(-c3ccc(O)c(O)c3)oc3cc(O)cc(O)c3c2=O)[C@H](OC(=O)CCc2ccc(O)cc2)[C@@H](O)[C@H]1O [Compound 14f] 8.86 µM

* * *

Could you please report measured IC50 for the items listed next?
- TEST TARGET: Staphylococcus aureus Topoisomerase IV (Staphylococcus aureus, UniProt P0C1S7+P0C1U9)
- Construct: purchased John Innes Enterprises
- Sequence (P0C1U9 whole entry): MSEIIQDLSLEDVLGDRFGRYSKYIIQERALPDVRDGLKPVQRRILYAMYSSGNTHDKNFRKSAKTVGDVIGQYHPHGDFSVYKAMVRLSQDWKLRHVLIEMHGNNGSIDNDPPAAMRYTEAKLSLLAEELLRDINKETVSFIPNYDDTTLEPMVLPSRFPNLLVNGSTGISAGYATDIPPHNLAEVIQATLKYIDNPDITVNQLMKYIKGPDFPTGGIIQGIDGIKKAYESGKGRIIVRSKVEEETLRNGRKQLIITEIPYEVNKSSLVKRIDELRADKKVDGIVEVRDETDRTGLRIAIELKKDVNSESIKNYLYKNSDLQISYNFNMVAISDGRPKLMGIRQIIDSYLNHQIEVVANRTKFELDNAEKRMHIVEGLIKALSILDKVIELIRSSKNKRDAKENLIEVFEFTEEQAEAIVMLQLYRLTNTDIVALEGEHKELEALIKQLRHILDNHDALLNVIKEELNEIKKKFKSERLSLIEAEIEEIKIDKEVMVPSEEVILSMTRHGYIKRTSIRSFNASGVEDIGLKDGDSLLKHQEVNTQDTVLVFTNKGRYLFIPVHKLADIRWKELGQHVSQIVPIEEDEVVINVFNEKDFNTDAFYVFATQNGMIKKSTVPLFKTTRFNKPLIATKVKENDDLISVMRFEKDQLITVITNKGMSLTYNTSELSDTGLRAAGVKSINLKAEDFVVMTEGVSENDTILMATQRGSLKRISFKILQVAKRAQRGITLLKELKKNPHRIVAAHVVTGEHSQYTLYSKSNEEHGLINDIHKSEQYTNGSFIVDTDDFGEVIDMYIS
- Sequence (P0C1S7 whole entry): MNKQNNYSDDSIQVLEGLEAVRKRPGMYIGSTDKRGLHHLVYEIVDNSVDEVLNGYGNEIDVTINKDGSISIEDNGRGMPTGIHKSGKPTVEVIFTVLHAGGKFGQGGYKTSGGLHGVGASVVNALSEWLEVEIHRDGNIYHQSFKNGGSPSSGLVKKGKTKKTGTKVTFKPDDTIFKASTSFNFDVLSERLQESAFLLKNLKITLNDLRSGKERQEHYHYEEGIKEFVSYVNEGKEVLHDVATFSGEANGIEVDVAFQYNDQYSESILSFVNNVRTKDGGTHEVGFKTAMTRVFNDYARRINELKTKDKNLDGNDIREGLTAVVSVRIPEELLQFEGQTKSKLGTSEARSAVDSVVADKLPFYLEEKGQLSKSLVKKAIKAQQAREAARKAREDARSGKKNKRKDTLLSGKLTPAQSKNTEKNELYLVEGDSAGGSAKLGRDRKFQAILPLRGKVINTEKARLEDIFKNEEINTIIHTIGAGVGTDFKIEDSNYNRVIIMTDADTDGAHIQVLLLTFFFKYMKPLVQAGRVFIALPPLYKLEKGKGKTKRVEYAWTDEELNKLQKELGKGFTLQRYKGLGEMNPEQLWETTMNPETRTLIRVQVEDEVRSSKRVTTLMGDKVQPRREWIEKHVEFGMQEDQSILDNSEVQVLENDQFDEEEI
- PROCEDURE DETAILS: Topoisomerase IV inhibition (decatenation kit), Exp. Ex. 2-3
- Assay type: biochemical
Write down the numeric answer in nM and omit the unit.

Give its IC50 value. Item: O=C(CCc1ccc(O)cc1)OC[C@H]1O[C@@H](Oc2c(-c3ccc(O)c(O)c3)oc3cc(O)cc(O)c3c2=O)[C@H](OC(=O)CCc2ccc(O)cc2)[C@@H](O)[C@H]1O [Compound 14f] 1590

# IC50 lookup, item Cc1ccc(CCC(=O)OCC2OC(Oc3c(-c4ccc(O)c(O)c4)oc4cc(O)cc(O)c4c3=O)C(OC(=O)CCc3ccc(C)cc3)C(O)C2O)cc1 (centres unmarked) [Compound 14l] 2570

What value of IC50 has been reported for the following compound? CCOc1ccc(C(=O)OC[C@H]2O[C@@H](Oc3c(-c4ccc(O)c(O)c4)oc4cc(O)cc(O)c4c3=O)[C@H](OC(=O)c3ccc(OCC)cc3)[C@@H](O)[C@H]2O)cc1 [Compound 14a] 1780

Record request: IC50 value, item CCCc1ccc(C(=O)OC[C@H]2O[C@@H](Oc3c(-c4ccc(O)c(O)c4)oc4cc(O)cc(O)c4c3=O)[C@H](OC(=O)c3ccc(CCC)cc3)[C@@H](O)[C@H]2O)cc1 [Compound 14b] 1930

// IC50 lookup, key: Cc1ccc(CC(=O)OC[C@H]2O[C@@H](Oc3c(-c4ccc(O)c(O)c4)oc4cc(O)cc(O)c4c3=O)[C@H](OC(=O)Cc3ccc(C)cc3)[C@@H](O)[C@H]2O)cc1 [Compound 14d] 2690

* * *

- System: Methicillin-resistant S. aureus COL
- PROCEDURE DETAILS: In vitro infectivity assay (MIC), Exp. Ex. 2-1
- Type: cell-based, Staphylococcus aureus
- RUN CONDITIONS: Staphylococcus aureus, MRSA; Gram-positive; microdilution, MIC after 24 h
MEASURED PARAMETER: MIC (µg/mL)
Report only the number, with the unit µg/mL understood.

I'm curious: which MIC was measured for CO[C@@H]1[C@@H](OC(N)=O)[C@@H](O)[C@H](Oc2ccc3c(O)c(NC(=O)c4ccc(O)c(CC=C(C)C)c4)c(=O)oc3c2C)OC1(C)C [Novobiocin, novobiocin, reference compound] tested on Methicillin-resistant S. aureus COL? 0.25

// fetch Methicillin-resistant S. aureus COL MIC for O=C(CCc1ccc(O)cc1)OC[C@H]1O[C@@H](Oc2c(-c3ccc(O)c(O)c3)oc3cc(O)cc(O)c3c2=O)[C@H](OC(=O)CCc2ccc(O)cc2)[C@@H](O)[C@H]1O [Compound 14f] 4

Reference source: patent US8916526B2
